Hey, just so you know, these numbers are from patent US8952054B2.

- experimental.system: MUC1-CD (Homo sapiens, UniProt P15941)
- Construct: the 72 aa cytoplasmic domain (CD); His
- Sequence (P15941 1184-1255 limits assumed): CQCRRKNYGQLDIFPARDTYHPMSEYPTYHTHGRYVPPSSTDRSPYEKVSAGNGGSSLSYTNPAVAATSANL
- experimental.details: Plate-based MUC1-CD dimerization inhibition assay (primary screening)
- run.conditions: range of concentrations; read-out: 50% inhibition (IC50) of MUC1-CD dimerization
endpoint: IC50 (µM)
Answer format: numeric, µM implied, no suffix.

Query: So what does the record say about IC50 for O=c1cc(-c2ccc(O)cc2)oc2cc(O)cc(O)c12 [Apigenin, 4′,5,7-trihydroxyflavone] ?
Reply: 76
